# System: human airway epithelial cells (HAECs)
# ASSAY_COMMENT: High-throughput sequencing (HTS) of miRNAs at four stages of differentiation of HAECs
# COND: stage FC; Table VI
Record 1.0 whenever Level of intensity of expression in log2 measured by high-throughput sequencing, FC is at 10 log2 or higher; record 0.0 when lower.

SUBSTANCE	CLASS_ASSIGNMENT
hsa-miR-23b: human miRNA, SEQ ID No. 26 (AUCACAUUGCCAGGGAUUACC; expressed or natural sequence; listed as Homo sapiens)	1.0
hsa-miR-939: human miRNA, SEQ ID No. 50 (UGGGGAGCUGAGGCUCUGGGGGUG; expressed or natural sequence; listed as Homo sapiens)	0.0
hsa-let-7f: human miRNA, SEQ ID No. 161 (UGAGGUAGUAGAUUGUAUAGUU; expressed or natural sequence; listed as Homo sapiens)	0.0
hsa-miR-30d: human miRNA, SEQ ID No. 35 (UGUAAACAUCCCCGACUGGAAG; expressed or natural sequence; listed as Homo sapiens)	0.0
hsa-miR-30e: human miRNA, SEQ ID No. 36 (UGUAAACAUCCUUGACUGGAAG; expressed or natural sequence; listed as Homo sapiens)	0.0
